System: CQ-sensitive (FCMSU1/Sudan) strain of P. falciparum
ASSAY_NAME: 3H-adenosine incorporation, chloroquine-sensitive P. falciparum
Type: cell-based
CONDITION_SUMMARY: S STRAIN; TT/CQ 10:1; mean ± S.D; read-out: IC50 DRUG COMBINATION TT(2.0 uM) CQ(0.2 uM)
Method: Chloroquine and qinghaosu are commonly used antimalarial drugs. The dose (IC50) of each drug or each drug combination required to effect a 50% inhibition in the malarial activity of each strain was determined by establishing a dose response curve for each. FCMSU1/Sudan strain and cloned Indochina (W-2) strain of P. falciparum were used. […] The resulting culture was ready for addition to microtitration plates with ninety-six flat-bottom wells. […]
READOUT: pIC50
Scale note: pIC50 = -log10(concentration in M).

Query string: Specify reported pIC50 for the molecule shown: COc1ccc2cc1Oc1ccc(cc1)C[C@H]1c3cc(c(OC)cc3CCN1C)Oc1c(OC)c(OC)cc3c1[C@H](C2)N(C)CC3
Result string: 6.94
